Source of measurements: patent US20230219965A1

Test system: Ub-PCNA levels in the nucleus of ES2 cells (USP1 activity)
Assay: ES2 Ub-PCNA immunofluorescence (IF) assay
Type: cell-based
Conditions: Homo sapiens, ES-2; ES2 cells, 3 hours, Ub-PCNA immunofluorescence; read-out: USP1 IC50 (Ub-PCNA)
pIC50: −log10 of the molar value.
We begin with a simple list: items and their reported pIC50.

Study these solved cases before continuing.
molecule="CCn1cc(C(F)(F)F)nc1-c1ccc([C@@H](C)N2CCCn3nc(-c4c(Cl)cnn4C(C)C)cc32)cc1 (single isomer, unassigned)" reported_metric=pIC50 result="> 7.00"
molecule=COc1cc([C@@H](C)N2C(=O)CCn3nc(-c4c(OC)ncnc4C4CC4)cc32)ccc1-c1nc(C(F)(F)F)cn1C(C)C reported_metric=pIC50 result="> 7.00"
molecule=CCn1cc(C(F)(F)F)nc1-c1ccc(CN2C(=O)CCn3nc(-c4c(Cl)cnn4C(C)(C)COC)cc32)cc1F reported_metric=pIC50 result="6.30 to 7.00"
molecule="CCn1cc(C(F)(F)F)nc1-c1ccc(O[C@@H]2CCCn3nc(-c4c(OC)ncnc4C4CC4)cc32)cc1F (single isomer, unassigned)" reported_metric=pIC50 result="6.30 to 7.00"
molecule=COc1ncnc(C2CC2)c1-c1nc2n(n1)CCC(=O)N2[C@@H](C)c1ccc(-c2nc(C(F)(F)F)cn2C2CC2)cc1 reported_metric=pIC50 result="> 7.00"
molecule=CC(C)n1ncc(Cl)c1-c1cc2n(n1)CCC(=O)N2Cc1ccc(-c2nc(C(F)(F)F)cn2C)cc1 reported_metric=pIC50 result="> 7.00"
molecule="CCn1cc(C(F)(F)F)nc1-c1ccc(O[C@H]2CCCn3nc(-c4c(OC)ncnc4C4CC4)cc32)cc1F (single isomer, unassigned)" reported_metric=pIC50 result="> 7.00"
molecule=CCn1cc(C(F)(F)F)nc1-c1ccc(CN2C(=O)CCn3nc(-c4c(OC(F)F)ncnc4C4CC4)nc32)cc1 reported_metric=pIC50 result="> 7.00"

So for CC(C)n1ncc(Cl)c1-c1cc2n(n1)CC(C)(O)C(=O)N2Cc1ccc(-c2nc(C(F)(F)F)cn2C)cc1 (stereo not shown) , the logged pIC50 turned out to be 6.30 to 7.00

So for COc1ncnc(C2CC2)c1-c1nc2n(n1)CCC(=O)N2[C@@H](C)c1ccc(-c2nc(C(F)(F)F)cn2C(C)C)c(F)c1 , the logged pIC50 turned out to be > 7.00

So for COc1c(CN2C(=O)CCn3nc(-c4c(OC(F)F)ncnc4C4CC4)nc32)ccc(-c2nc(C(F)(F)F)cn2C(C)C)c1F , the logged pIC50 turned out to be > 7.00

So for CCn1cc(C(F)(F)F)nc1-c1ccc(N[C@H]2CCCn3nc(-c4c(Cl)cnn4C(C)C)cc32)cc1 (single isomer, unassigned) , the logged pIC50 turned out to be > 7.00

So for CCn1cc(C(F)(F)F)nc1-c1ccc(CN2C(=O)CCn3nc(-c4c(Cl)cnn4C(C)COC)cc32)cc1 (stereo not shown) , the logged pIC50 turned out to be > 7.00

====

Molecular target: USP1/UAF1 enzyme (Homo sapiens, UniProt O94782)
Sequence (O94782 whole entry): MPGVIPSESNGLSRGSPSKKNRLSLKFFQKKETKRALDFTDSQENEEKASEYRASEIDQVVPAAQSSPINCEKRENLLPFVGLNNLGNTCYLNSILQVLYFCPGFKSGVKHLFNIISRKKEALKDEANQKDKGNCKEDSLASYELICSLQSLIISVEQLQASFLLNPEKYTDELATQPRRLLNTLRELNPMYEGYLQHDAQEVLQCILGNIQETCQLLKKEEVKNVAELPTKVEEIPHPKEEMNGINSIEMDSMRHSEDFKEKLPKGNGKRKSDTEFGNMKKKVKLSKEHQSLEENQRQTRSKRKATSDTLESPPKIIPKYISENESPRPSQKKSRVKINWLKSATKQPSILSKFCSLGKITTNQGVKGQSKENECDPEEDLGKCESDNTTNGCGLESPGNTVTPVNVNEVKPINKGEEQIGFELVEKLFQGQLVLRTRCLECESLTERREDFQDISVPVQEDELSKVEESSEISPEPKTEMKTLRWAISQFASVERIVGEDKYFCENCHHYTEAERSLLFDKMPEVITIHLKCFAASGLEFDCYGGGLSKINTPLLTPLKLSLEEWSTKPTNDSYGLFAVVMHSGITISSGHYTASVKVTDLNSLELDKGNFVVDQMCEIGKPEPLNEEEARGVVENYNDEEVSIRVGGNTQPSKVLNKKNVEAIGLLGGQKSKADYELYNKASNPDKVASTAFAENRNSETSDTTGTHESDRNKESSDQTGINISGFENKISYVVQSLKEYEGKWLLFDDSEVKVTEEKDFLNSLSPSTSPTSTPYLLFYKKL
Sequence (Q8TAF3 whole entry partner): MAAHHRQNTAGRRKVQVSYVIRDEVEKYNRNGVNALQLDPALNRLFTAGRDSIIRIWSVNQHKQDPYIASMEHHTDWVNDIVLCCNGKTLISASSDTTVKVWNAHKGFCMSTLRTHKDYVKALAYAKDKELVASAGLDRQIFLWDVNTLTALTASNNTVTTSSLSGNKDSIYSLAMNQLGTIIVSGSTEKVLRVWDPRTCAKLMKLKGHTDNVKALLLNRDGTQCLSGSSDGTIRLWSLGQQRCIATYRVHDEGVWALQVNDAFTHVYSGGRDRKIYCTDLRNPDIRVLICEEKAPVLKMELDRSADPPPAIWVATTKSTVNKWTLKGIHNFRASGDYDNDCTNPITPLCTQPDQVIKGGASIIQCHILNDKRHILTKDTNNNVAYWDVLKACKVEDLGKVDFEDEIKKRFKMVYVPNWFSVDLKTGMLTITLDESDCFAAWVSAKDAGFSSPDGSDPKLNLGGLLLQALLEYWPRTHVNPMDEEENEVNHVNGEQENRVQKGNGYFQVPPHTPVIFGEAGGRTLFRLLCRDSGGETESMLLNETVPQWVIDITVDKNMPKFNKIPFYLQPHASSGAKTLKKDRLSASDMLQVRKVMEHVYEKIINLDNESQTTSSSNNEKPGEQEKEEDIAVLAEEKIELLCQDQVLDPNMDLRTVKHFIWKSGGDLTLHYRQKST
Experiment: USP1/UAF1 deubiquitination assay (ubiquitin-rhodamine 110 substrate)
Details: read-out: USP1 IC50 (Ub-Rho)
REPORTED_METRIC: IC50

Study these solved cases before continuing.
compound="CCn1cc(C(F)(F)F)nc1-c1ccc([C@@H](C)N2C(=O)CCn3nc(-c4c(OC)ncnc4C4CC4)nc32)cc1 [Example 184]" reported_metric=IC50 result="< 100 nM"
compound="CCn1cc(C(F)(F)F)nc1-c1ccc(CN2CC3(CC3)Cn3nc(-c4c(OC)ncnc4C4CC4)cc32)cc1F [Example 30]" reported_metric=IC50 result="< 100 nM"
compound="COc1ncnc(C2CC2)c1-c1cc2n(n1)CCC(=O)N2Cc1ccc(-c2nc(C(F)(F)F)cn2C(C)C)cc1 [Example 72]" reported_metric=IC50 result="< 100 nM"
compound="CC(C)n1cc(C(F)(F)F)nc1-c1ccc(Cn2c(=O)ccn3nc(-c4c(OC(F)F)ncnc4C4CC4)nc23)cc1 [Example 344]" reported_metric=IC50 result="< 100 nM"
compound="CCn1cc(C(F)(F)F)nc1-c1ccc(CNC2CCCn3nc(-c4c(Cl)cnn4C(C)C)cc32)cc1 (stereo not shown) [Example 330]" reported_metric=IC50 result="< 100 nM"
compound="CCn1cc(C(F)(F)F)nc1-c1ccc([C@H](C)N2C(=O)CCn3nc(-c4c(Cl)cnn4C(C)C)nc32)cc1 [Example 193]" reported_metric=IC50 result="< 100 nM"

So for CCn1cc(C(F)(F)F)nc1-c1ccc(CN2C(=O)CCn3nc(-c4c(C(C)C)cnn4C)cc32)cc1 [Example 158] , the logged IC50 turned out to be > 500 nM

So for Cc1cnn(C(C)C)c1-c1nc2n(n1)CCCN2Cc1ccc(-c2nc(C(F)(F)F)cn2C(C)C)cc1 [Example 222] , the logged IC50 turned out to be < 100 nM

So for CCn1cc(C(F)(F)F)nc1-c1ccc(CN2CC(C)(C)Cn3nc(-c4c(OC)ncnc4C4CC4)cc32)cc1F [Example 327] , the logged IC50 turned out to be < 100 nM

So for CC(c1ccc(-n2nc(C(F)(F)F)cc2OCC(F)F)cc1)N1C(=O)CCn2nc(-c3c(Cl)cnn3C(C)C)nc21 (stereo not shown) [Example 215] , the logged IC50 turned out to be 100 to 500 nM

So for CCn1cc(C(F)(F)F)nc1-c1ccc(CN2C(=O)CCn3nc(-c4c(OC)ncnc4C4CC4)cc32)cc1F [Example 78] , the logged IC50 turned out to be < 100 nM
